Source listed as the supplement of paper PMC8253809.

System: SUDIPGXIII (diffuse intrinsic pontine glioma line)
Assay: growth inhibition (% activity, log2 RLU normalised to DMSO / staurosporine); higher = more growth inhibition
Conditions: 33 µM

SMILES_NOTATION | TARGET_OR_SYSTEM | READING_UNIT | growth inhibition
CN(C)c1ccc(O)c2c1C[C@H]1C[C@H]3[C@H](N(C)C)C(=O)C(C(N)=O)=C(O)[C@@]3(O)C(=O)C1=C2O | SUDIPGXIII | % | 1.96
Cc1noc(NS(=O)(=O)c2ccc(N)cc2)c1C | SUDIPGXIII | % | -3.55
Oc1cc(O)c(Cl)cn1 | SUDIPGXIII | % | 0.7
CCn1cc(C(=O)O)c(=O)c2cc(F)c(N3CCN(C)CC3)cc21 | SUDIPGXIII | % | 1.57
CC(=O)Oc1cc(C(F)(F)F)ccc1C(=O)O | SUDIPGXIII | % | -2.75
C[N+]1(C)CCC(=C(c2ccccc2)c2ccccc2)CC1 | SUDIPGXIII | % | 1.56

---

System: HGGX6 (H3.3 G34R paediatric high-grade glioma line)
Experiment: growth inhibition (% activity, log2 RLU normalised to DMSO / staurosporine); higher = more growth inhibition
Conditions: 33 µM

COMPOUND | growth inhibition (%)
CC(=O)O[C@H]1C(=O)[C@@]2(C)[C@H]([C@H](OC(=O)c3ccccc3)[C@]3(O)C[C@H](OC(=O)[C@H](O)[C@@H](NC(=O)c4ccccc4)c4ccccc4)C(C)=C1C3(C)C)[C@]1(OC(C)=O)CO[C@@H]1C[C@@H]2O | 16.2
CNC(CC(C)C)C(=O)NC1C(=O)NC(CC(N)=O)C(=O)NC2C(=O)NC3C(=O)NC(C(=O)NC(C(=O)O)c4cc(O)cc(O)c4-c4cc3ccc4O)C(O)c3ccc(c(Cl)c3)Oc3cc2cc(c3OC2OC(CO)C(O)C(O)C2OC2CC(C)(N)C(O)C(C)O2)Oc2ccc(cc2Cl)C1O (centres undefined) | -2.38
O=C(Nc1ccccc1)OCC(CN1CCCCC1)OC(=O)Nc1ccccc1 (centres undefined) | -1.35
NC(CO)(CO)CO | 0.412
Cn1nnc2c(C(N)=O)ncn2c1=O | -0.426
CCCCCCCCOc1ccccc1C(=O)Nc1ccc(C(=O)OCC[N+](C)(CC)CC)cc1 | 10.8
NC(=O)Cc1cccc(C(=O)c2ccccc2)c1N | 0.913
C/C(O)=C(\C#N)C(=O)Nc1ccc(C(F)(F)F)cc1 | 5.21
Clc1ccc(C(Cn2ccnc2)OCc2csc3c(Cl)cccc23)c(Cl)c1 (centres undefined) | 6.02
COc1c2occc2cc2ccc(=O)oc12 | -2.24
CC[C@H](C)[C@H](N)C1=N[C@H](C(=O)N[C@@H](CC(C)C)C(=O)N[C@H](CCC(=O)O)C(=O)N[C@H](C(=O)N[C@H]2CCCCNC(=O)[C@H](CC(N)=O)NC(=O)[C@@H](CC(=O)O)NC(=O)[C@H](Cc3cnc[nH]3)NC(=O)[C@@H](Cc3ccccc3)NC(=O)[C@H]([C@@H](C)CC)NC(=O)[C@@H](CCCN)NC2=O)[C@@H](C)CC)CS1 | -1.08
CCOC(=O)[C@H](CCc1ccccc1)N[C@H]1CCCN2CCC[C@@H](C(=O)O)N2C1=O | 1.01
CCCCc1oc2ccc(NS(C)(=O)=O)cc2c1C(=O)c1ccc(OCCCN(CCCC)CCCC)cc1 | 60.2
Cc1cc(C(C)(C)C)c(O)c(C)c1CC1=NCCN1 | 0.112
Fc1ccc([C@@H]2CCNC[C@H]2COc2ccc3c(c2)OCO3)cc1 | 0.754
Nc1nc(=O)n([C@@H]2CS[C@H](CO)O2)cc1F | 0.276
NC(=O)c1ncn([C@@H]2O[C@H](CO)[C@@H](O)[C@H]2O)c1N | 0.815
CCN(CC)CCOC(=O)C1(C2CCCCC2)CCCCC1 | -0.591
CCS(=O)(=O)CCn1c([N+](=O)[O-])cnc1C | -1.57
CS(=O)(=O)c1ccc(C2=C(c3ccccc3)C(=O)OC2)cc1 | -2.78
[O-]n1ccccc1=S.[O-]n1ccccc1=S.[Zn+2] | 59.7
C[C@@H](O)[C@H]1C(=O)N2C(C(=O)O)=C(S[C@@H]3CN[C@H](CNS(N)(=O)=O)C3)[C@H](C)[C@H]12 | -2.09
COc1ccc(-n2nc(C(N)=O)c3c2C(=O)N(c2ccc(N4CCCCC4=O)cc2)CC3)cc1 | 1.04
CCOC(=O)[C@H](CCc1ccccc1)N[C@H]1CCc2ccccc2N(CC(=O)O)C1=O | -3.48
C[N+](C)(CCOc1ccccc1)Cc1ccccc1.O=C([O-])c1cc2ccccc2cc1O | -2.23
CCC[S+]([O-])c1ccc2[nH]c(NC(=O)OC)nc2c1 (centres undefined) | 2.32
COc1cc(NS(=O)(=O)c2ccc(N)cc2)nc(OC)n1 | 2.67
CC1=CC(=O)c2ccccc2C1=O | 2.5
Nc1cccc2c1CN(C1CCC(=O)NC1=O)C2=O (centres undefined) | 4.94
CC1=C(CC(=O)O)c2cc(F)ccc2/C1=C\c1ccc([S+](C)[O-])cc1 (centres undefined) | 2.31
CC1=C(C(=O)O)N2C(=O)[C@@H](NC(=O)[C@H](N)c3ccccc3)[C@H]2SC1 | 0.198
CCN[C@H]1CN(CCCOC)S(=O)(=O)c2sc(S(N)(=O)=O)cc21 | 2.83
CNC(=O)c1cc(Oc2ccc(NC(=O)Nc3ccc(Cl)c(C(F)(F)F)c3)cc2)ccn1 | 32
CCCCCCCCCC(=O)N[C@@H](Cc1c[nH]c2ccccc12)C(=O)N[C@@H](CC(N)=O)C(=O)N[C@@H](CC(=O)O)C(=O)N[C@@H]1C(=O)NCC(=O)N[C@@H](CCCN)C(=O)N[C@@H](CC(=O)O)C(=O)N[C@H](C)C(=O)N[C@@H](CC(=O)O)C(=O)NCC(=O)N[C@H](CO)C(=O)N[C@@H]([C@H](C)CC(=O)O)C(=O)N[C@@H](CC(=O)c2ccccc2N)C(=O)O[C@@H]1C | -2.93

---

Tested on: SUDIPGXIII
Assay: growth inhibition (% activity, log2 RLU normalised to DMSO / staurosporine); higher = more growth inhibition
Details: 33 µM
// reported growth inhibition per item

MOLECULE | TARGET_OR_SYSTEM | growth inhibition [%]
CCN(Cc1ccncc1)C(=O)C(CO)c1ccccc1 (stereo not drawn) | SUDIPGXIII | -1.24
COC(=O)C1=C(C)NC(C)=C(C(=O)OCCN(C)Cc2ccccc2)C1c1cccc([N+](=O)[O-])c1 (stereo not drawn) | SUDIPGXIII | 2.92
CCOC(=O)c1ncn2c1CN(C)C(=O)c1cc(F)ccc1-2 | SUDIPGXIII | 2.26
Cc1cnc(C(=O)O)c[n+]1[O-] | SUDIPGXIII | 0.57
CN(C)CCCN1c2ccccc2Sc2ccc(Cl)cc21 | SUDIPGXIII | 2.77
CN(C)CCOC(C)(c1ccccc1)c1ccccn1 (stereo not drawn) | SUDIPGXIII | 0.1
NCCC(O)(P(=O)(O)O)P(=O)(O)O | SUDIPGXIII | 0.475
CCOC(=O)CC(=O)N1CCSC1COc1ccccc1OC (stereo not drawn) | SUDIPGXIII | -0.201
CC(N)C12CC3CC(CC(C3)C1)C2 (stereo not drawn) | SUDIPGXIII | -0.4
CN(C)C(=N)NC(=N)N | SUDIPGXIII | -1.47
CNCCC(Oc1ccc(C(F)(F)F)cc1)c1ccccc1 (stereo not drawn) | SUDIPGXIII | 2.42
CCC[C@H](N[C@@H](C)C(=O)N1[C@H](C(=O)O)C[C@@H]2CCCC[C@@H]21)C(=O)OCC | SUDIPGXIII | 0.674
CN1CCN2c3ccccc3Cc3ccccc3C2C1 (stereo not drawn) | SUDIPGXIII | -2.33
CC[C@H]1OC(=O)[C@H](C)[C@@H](O[C@H]2C[C@@](C)(OC)[C@@H](O)[C@H](C)O2)[C@H](C)[C@@H](O[C@@H]2O[C@H](C)C[C@H](N(C)C)[C@H]2O)[C@](C)(OC)C[C@@H](C)C(=O)[C@H](C)[C@@H](O)[C@]1(C)O | SUDIPGXIII | -13
Cc1ccc(S(=O)(=O)NC(=O)NN2CC3CCCC3C2)cc1 (stereo not drawn) | SUDIPGXIII | 0.367
CC(=O)OCC(=O)[C@@]12N=C(C)O[C@@H]1C[C@H]1[C@@H]3CCC4=CC(=O)C=C[C@]4(C)[C@H]3[C@@H](O)C[C@@]12C | SUDIPGXIII | -1.39
C=C1[C@H](CO)[C@@H](O)C[C@@H]1n1cnc2c(=O)[nH]c(N)nc21 | SUDIPGXIII | 2.42
CCOC(=O)[C@H](CCc1ccccc1)N[C@@H](C)C(=O)N1C(=O)N(C)C[C@H]1C(=O)O | SUDIPGXIII | 1.71
C[C@@H]1CC(=O)NN=C1c1ccc(NN=C(C#N)C#N)cc1 | SUDIPGXIII | 0.449
CCOC(=O)[C@H](CCc1ccccc1)N[C@H]1CCc2ccccc2N(CC(=O)O)C1=O | SUDIPGXIII | -0.0284
COCCOC(=O)C1=C(C)NC(C)=C(C(=O)OC(C)C)C1c1cccc([N+](=O)[O-])c1 (stereo not drawn) | SUDIPGXIII | 2.89
CCN(CC)CC(=O)Nc1c(C)cccc1C | SUDIPGXIII | 1.3
O=c1cc[nH]c(=O)[nH]1 | SUDIPGXIII | -16.8
O=C(O)C(=O)O.[NH-]C1CCCCC1[NH-].[Pt+2] (stereo not drawn) | SUDIPGXIII | 1.07
CCc1cc(C(N)=S)ccn1 | SUDIPGXIII | -0.39
COc1ccc(-c2ccc3cc(C(=O)O)ccc3c2)cc1C12CC3CC(CC(C3)C1)C2 | SUDIPGXIII | 1.39
O=C1C(=O)c2ccccc2C(O)=C1C1CCC(c2ccc(Cl)cc2)CC1 (stereo not drawn) | SUDIPGXIII | 1.82
C#Cc1cccc(Nc2ncnc3cc(OCCOC)c(OCCOC)cc23)c1 | SUDIPGXIII | 1.17
C=C1/C(=C\C=C2/CCC[C@]3(C)[C@@H]([C@H](C)/C=C/[C@H](C)C(C)C)CC[C@@H]23)C[C@@H](O)C[C@@H]1O | SUDIPGXIII | 1.03
CCc1cc2c(cc1CC)CC(NC[C@H](O)c1ccc(O)c3[nH]c(=O)ccc13)C2 | SUDIPGXIII | 0.665
CCCc1nc2c(C)cc(-c3nc4ccccc4n3C)cc2n1Cc1ccc(-c2ccccc2C(=O)O)cc1 | SUDIPGXIII | -1.14
CCCCC(=O)N(Cc1ccc(-c2ccccc2-c2nnn[nH]2)cc1)[C@H](C(=O)O)C(C)C | SUDIPGXIII | -8.43
Nc1nc(=O)n([C@@H]2CS[C@H](CO)O2)cc1F | SUDIPGXIII | -2.25
Cn1ccnc1S | SUDIPGXIII | -8.17
CS(=O)(=O)c1ccc(C(=O)Nc2ccc(Cl)c(-c3ccccn3)c2)c(Cl)c1 | SUDIPGXIII | -0.808
Cc1ccnc2c1NC(=O)c1cccnc1N2C1CC1 | SUDIPGXIII | 0.637
CC1(C)Cc2c(-c3ccccc3)c(-c3ccc(Cl)cc3)c(CC(=O)O)n2C1 | SUDIPGXIII | 1.12
CC(/C=C1\SC(=S)N(CC(=O)O)C1=O)=C\c1ccccc1 | SUDIPGXIII | 1.76
NC(N)=Nc1nc(CSCC/C(N)=N/S(N)(=O)=O)cs1 | SUDIPGXIII | -0.00988
Oc1ccc(OCc2ccccc2)cc1 | SUDIPGXIII | -1.26
Nc1nnc(-c2cccc(Cl)c2Cl)c(N)n1 | SUDIPGXIII | 0.73
CC1(C)S[C@@H]2[C@H](NC(=O)[C@H](NC(=O)N3CCNC3=O)c3ccccc3)C(=O)N2[C@H]1C(=O)O | SUDIPGXIII | -0.815
CCCc1cc(=O)[nH]c(=S)[nH]1 | SUDIPGXIII | 1.61
